Origin of the recorded values: PubChem BioAssay (Tox21)

- Study Target: Cytochrome P450 2D6 (Homo sapiens)
- Run Description: Cytochrome P450 Family 2 Subfamily D Member 6 (CYP2D6) small molecule antagonists: luciferase reporter qHTS assay (AID 1671196); further: nearly all actives have a fitted effect of over 50% in size
- Condition Info: P450-Glo CYP2D6 enzyme assay, luciferin luminescence, 1 h; series mostly up to 115 µM
Inconclusive results are not listed. Activity calls are given as the source filed them. The call rests on the fitted dose curve; in most records, active means well fitted inhibition curve with a large enough effect in the repeat runs; inconclusive means weak or mixed curves; inactive means no such curve, though single readings can be large or run the other way.
Write down one outcome, taken from active, inactive

How did this test come out for `CC(C)(C)c1cc(C(C)(C)C)c(O)c(C(C)(C)C)c1` ?
inactive

Returns: the outcome recorded for `O=C1NCC2(CCN(CCc3ccccc3)CC2)O1` in this assay.
active

How did this test come out for `O=C(O)c1cc(Cl)cc(Cl)c1` ?
active

Please indicate how the test categorized `O=C(O)c1cn(-c2ccc(F)cc2)c2cc(N3CCNCC3)c(F)cc2c1=O` .
inactive

I would be grateful if you could indicate the recorded call for CC(C)(C)NCC(O)c1cc(O)cc(O)c1 (stereo unspecified) .
active

Outcome? `Oc1c(Cl)cc(Cl)cc1Sc1cc(Cl)cc(Cl)c1O`
inactive

Returns: the outcome recorded for `CCC(CO)(CO)COCC(CC)(CO)CO` in this assay.
inactive

Write down the call the test reported for this compound. Item: CNC1(C)C2CCC(C2)C1(C)C (stereo unspecified)
inactive

// return assay outcome for `CCC[C@H](N[C@@H](C)C(=O)N1[C@H](C(=O)O)C[C@@H]2CCCC[C@@H]21)C(=O)OCC`
inactive

What classification did `O=C(Cl)c1cccc(C(=O)Cl)c1` end up with in this test?
inactive

Query: recorded result category for `c1cnc2cc3c(cc2n1)C1CNCC3C1` in this test
inactive

Outcome? `O=C(Oc1ccccc1)c1ccccc1O`
inactive

Test call, this compound: CCOC(=O)C(C)C(C)=O (stereo unspecified)
inactive

// return assay outcome for CC(C)(C)NCC(O)COc1ccccc1OCC1CCCO1 (stereo unspecified)
active

Hi, do you know how `Cc1occc(=O)c1OC(=O)C(C)C` came out in this test?
inactive

Status in this test for `CCN(CC)C(=S)SSC(=S)N(CC)CC` ?
active

Entry `CC(=O)N[C@@H](CS)C(=O)O` : call = ?
inactive

Just curious, what result did CCCCCCC(O)CCCCCCCCCCC(=O)O (stereo unspecified) get here?
inactive

Would you mind telling me which call this test gave `Cc1cc(Cc2cc(C)cc(C(C)(C)C)c2O)c(O)c(C(C)(C)C)c1` ?
inactive

Short answer needed: outcome of this test for `[Cl][In]([Cl])[Cl]` ?
inactive

Recorded test call requested for `CC[C@H]1CN2CCc3cc(OC)c(OC)cc3[C@@H]2C[C@@H]1C[C@H]1NCCc2cc(OC)c(OC)cc21`
active

Which outcome was entered for the compound `CC(C)(c1ccccc1)c1ccc(Nc2ccc(C(C)(C)c3ccccc3)cc2)cc1` in this test?
inactive

// outcome(item) with item = CCC(C)(Oc1ccc(C2(c3ccc(OC(C)(CC)C(=O)O)cc3)CCCCC2)cc1)C(=O)O (stereo unspecified)
inactive

Please indicate how the test categorized CC1COC(=O)O1 (stereo unspecified) .
inactive

In this assay, the call recorded for `CC(C)(O)CCC(C)(C)O` was what?
inactive

Lab log entry: `CC(=O)OCC1=C(C(=O)O)N2C(=O)[C@@H](NC(=O)Cc3cccs3)[C@H]2SC1` — outcome as called in the assay?
inactive

----------
- Run Description: qHTS assay to identify small molecule agonists of the AP-1 signaling pathway - cell viability counter screen (AID 1159525); further: nearly all actives have a fitted effect of over 55% in size
- Condition Info: ME-180 (cervical carcinoma) AP-1-bla cells viability, ATP luminescence, 5 h; series mostly up to 76.8 µM
Results filed as inconclusive are left out. Activity calls are given as the source filed them. Calls come from the whole dose curve.
Write down the outcome that applies. Available outcomes: active, inactive

Hi, do you know how `CC(C)(c1ccccc1)c1ccc(Nc2ccc(C(C)(C)c3ccccc3)cc2)cc1` came out in this test?
inactive

Name the outcome recorded for `COC(=O)c1cccc(C(=O)OC)c1` in the assay.
inactive

Lab log entry: CC1COc2c(N3CCN(C)CC3)c(F)cc3c(=O)c(C(=O)O)cn1c23 (stereo not drawn) — outcome as called in the assay?
inactive

What outcome does the record of this test show for `CC(C)(C)c1ccccc1` ?
inactive

Given c1cc(C(c2ccc(OCC3CO3)cc2)C(c2ccc(OCC3CO3)cc2)c2ccc(OCC3CO3)cc2)ccc1OCC1CO1 (stereo not drawn) , state the outcome it received in this test.
inactive

For this compound, state the assay outcome: `CC(C)(O)CCC(C)(C)O`
inactive

// param item: `COc1ccc(COC(C)=O)cc1` ; yields the recorded call
inactive

Hi team, can someone confirm the assay call for `[Cl][In]([Cl])[Cl]` ?
inactive

Please share the test call associated with `CC[C@H]1CN2CCc3cc(OC)c(OC)cc3[C@@H]2C[C@@H]1C[C@H]1NCCc2cc(OC)c(OC)cc21` .
inactive

Query: recorded result category for CC(C)(C)NCC(O)c1cc(O)cc(O)c1 (stereo not drawn) in this test
inactive

Would you mind telling me which call this test gave `CC(C)(C)c1ccc(O)c(C(C)(C)C)c1` ?
active

Hello, I am checking results. What call was entered for `NC(N)=Nc1nc(CSCC/C(N)=N/S(N)(=O)=O)cs1` ?
inactive

Record lookup: outcome of this test for `CCOc1ccccc1C(N)=O` ?
inactive

----------
- Run Description: qHTS RealTime-Glo MT Cell Viability Assay in HepG2 cells - 8 hour (AID 1224873); further: nearly all actives have a fitted effect of over 55% in size
- Condition Info: RealTime-Glo luminescence; series mostly up to 76.8 µM
Inconclusive results are not listed. Activity calls are given as the source filed them. The call rests on the fitted dose curve; in most records, active means well fitted cell-killing curve with a large enough effect in the repeat runs; inconclusive means weak or mixed curves; inactive means flat fitted curve, though single readings scatter.
Answer with one of the outcomes given here: T = active, F = inactive

Called result for `c1cnc2cc3c(cc2n1)C1CNCC3C1`
F

Hi, do you know how `O=C(O)Cn1cnnn1` came out in this test?
F

What was the test verdict on `Cc1cc(Cc2cc(C)cc(C(C)(C)C)c2O)c(O)c(C(C)(C)C)c1` ?
T

Look up the recorded call for `C[N+]1([O-])CCOCC1` in this test.
F

For `c1ccc2n[nH]nc2c1` , what call appears in the results of this test?
F

Dear colleague, could you share the recorded outcome for `CC(=O)O[C@]1(C(C)=O)CC[C@H]2[C@@H]3C[C@H](C)C4=CC(=O)CC[C@]4(C)[C@H]3CC[C@@]21C` when you have a moment?
F

Which outcome was entered for the molecule `CCOc1ccccc1C(N)=O` in this test?
F

I would be grateful if you could indicate the recorded call for `CC(=O)N[C@@H](CS)C(=O)O` .
F

Dear colleague, could you share the recorded outcome for O=c1n(CC2CO2)c(=O)n(CC2CO2)c(=O)n1CC1CO1 (configuration not stated) when you have a moment?
F

Would you mind telling me which call this test gave `CC(C)(C)c1ccc(O)c(C(C)(C)C)c1` ?
T

Per the records of this test, what outcome belongs to `CCCOC(=O)c1cc(O)c(O)c(O)c1` ?
F

Please state the recorded outcome for this molecule: CC(C)(C)NCC(O)c1cc(O)cc(O)c1 (configuration not stated)
F

State the result this test recorded for `Nc1nc(=S)c2[nH]cnc2[nH]1` .
F

What call does the record list for `Cc1cccc2n[nH]nc12` ?
F

In this assay, the call recorded for CCC(C)(Oc1ccc(C2(c3ccc(OC(C)(CC)C(=O)O)cc3)CCCCC2)cc1)C(=O)O (configuration not stated) was what?
F

Write down the call the test reported for this molecule. Item: `CC(C)(C)c1cc(C(C)(C)C)c(O)c(C(C)(C)C)c1`
F

Short answer needed: outcome of this test for `CC[C@H]1CN2CCc3cc(OC)c(OC)cc3[C@@H]2C[C@@H]1C[C@H]1NCCc2cc(OC)c(OC)cc21` ?
F

Write down the call the test reported for this molecule. Item: `CCCN[C@H]1CCc2nc(N)sc2C1`
F

Tell me the recorded outcome of this test for `CCN(CC)c1ccc2c(C)cc(=O)oc2c1` .
F

Which outcome was entered for the molecule `Oc1c(Cl)cc(Cl)cc1Sc1cc(Cl)cc(Cl)c1O` in this test?
F

Lab log entry: CCN(CC)C(=O)Nc1ccc(OCC(O)CNC(C)(C)C)c(C(C)=O)c1 (configuration not stated) — outcome as called in the assay?
F

Returns: the outcome recorded for `OCCN1CCNCC1` in this assay.
F

Outcome? `Nc1cc(Cl)c(-c2cc(Cl)c(N)cc2Cl)cc1Cl`
F

What classification did `NNCCc1ccccc1` end up with in this test?
F

Lab log entry: `CCN(CC)C(=S)SSC(=S)N(CC)CC` — outcome as called in the assay?
T

Just curious, what result did `O=C(O)CCc1ccccc1` get here?
F

Call for entry `CC(=O)Nc1ccc(C(=O)CCl)cc1` :
F

What did this assay record as the result for `CCn1c2ccccc2c2cc(N)ccc21` ?
F

Which outcome was entered for the molecule `Oc1c(Cl)cc(Cl)c(Cl)c1Cc1c(O)c(Cl)cc(Cl)c1Cl` in this test?
F

In this assay, the call recorded for CCCNC(C)C(=O)Nc1ccccc1C (configuration not stated) was what?
F

Each molecule tested received a call. Report the one for `CCOc1ccc2c(c1)C(C)=CC(C)(C)N2` .
F

Outcome logged for CNC1(C)C2CCC(C2)C1(C)C (configuration not stated) in this assay:
F

I'd appreciate the recorded outcome for `CC1=CC(=O)c2ccccc2C1=O` from this test.
T

Each molecule tested received a call. Report the one for `CC(=O)OCC1=C(C(=O)O)N2C(=O)[C@@H](NC(=O)Cc3cccs3)[C@H]2SC1` .
F

// return assay outcome for `Nc1cc(S(=O)(=O)O)cc2cc(S(=O)(=O)O)cc(O)c12`
F

Fill in: this test's call for `Oc1ccc(Cl)cc1Cc1cc(Cl)ccc1O` is ___
F

What did the test return for `CC(C)(O)CCC(C)(C)O` ?
F

So what was the verdict on CCOC(=O)C(C)C(C)=O (configuration not stated) in this test?
F

What did the test return for `O=C(O[C@@H]1Cc2c(O)cc(O)cc2O[C@@H]1c1cc(O)c(O)c(O)c1)c1cc(O)c(O)c(O)c1` ?
F

Lab log entry: `O=C1NCC2(CCN(CCc3ccccc3)CC2)O1` — outcome as called in the assay?
F

Could you kindly confirm the outcome this assay logged for `Cc1c(O)cccc1C(=O)N[C@@H](CSc1ccccc1)[C@H](O)CN1C[C@H]2CCCC[C@H]2C[C@H]1C(=O)NC(C)(C)C` ?
F

Short answer needed: outcome of this test for `O=C(O)c1cccc(C(=O)O)c1` ?
F
